- PROTOCOL_DESCRIPTION: Human HepG2 cell viability assay in 384 well format
- Assay type: toxicity, cell-based
- Set-up: dose 125 nL, time 70.5 hour; concentration not given beside the values
- CONDITIONS_USED: HepG2 cells, read-out: Inhibition
Property: cytotoxicity at 70.5 h; scope: individual molecules

| MOLECULE | RESULT_UNITS | cytotoxicity at 70.5 h |
| --- | --- | --- |
| CN(C)CCn1c(=O)oc2ccc(NC(=O)CSc3ccccc3)cc21 | % | 6.5 |
| CC(C(=O)Nc1ccnn1C(C)C)N1CCN(Cc2ccon2)CC1 (stereo unspecified) | % | 1.23 |
| c1cn(CCn2cnnc2)c(-c2cc3n(n2)CCCNC3)n1 | % | -5.64 |
| COC1CCN(CCNC(=O)NCC(C)c2cccc(C)c2)CC1 (stereo unspecified) | % | 9.93 |
| CC(C)n1nc2c(cc1=O)CN(CC1CCCCO1)CC2 (stereo unspecified) | % | -5.1 |
| Cc1noc(C)c1CN1C[C@@H]2CN(C(=O)c3cscn3)C[C@@H]2C1 | % | -2.29 |
| Cc1cc(CNc2ccc(C(=O)N3CCCC(C)C3)cc2C)no1 (stereo unspecified) | % | -16.5 |
| O=C1C[C@H]2[C@H](CCN2Cc2ccccn2)N1CC1CC1 | % | -15.8 |
| O=C(CCNc1ncccn1)N1CCCC(n2ccnc2)C1 (stereo unspecified) | % | -2.71 |
| Cc1cccc(OC(C)C(=O)NCC2(N(C)C)CCCC2)c1 (stereo unspecified) | % | -8.19 |
| Cc1nn(C)cc1Cn1c(=O)cnc2ccccc21 | % | -19.1 |
